Measured Porcine Ventricle IC25 of individual entries
# STUDY TARGET: Porcine Ventricle myofibrils (left ventricle of Yucatan minipigs) (Sus scrofa, UniProt P79293)
# Construct: Myofibrils from porcine cardiac muscle was isolated from the left ventricle of Yucatan minipigs; tissue Exemplar Genetics; host or cells: left ventricle of Yucatan minipigs
# Sequence (P79293 whole entry): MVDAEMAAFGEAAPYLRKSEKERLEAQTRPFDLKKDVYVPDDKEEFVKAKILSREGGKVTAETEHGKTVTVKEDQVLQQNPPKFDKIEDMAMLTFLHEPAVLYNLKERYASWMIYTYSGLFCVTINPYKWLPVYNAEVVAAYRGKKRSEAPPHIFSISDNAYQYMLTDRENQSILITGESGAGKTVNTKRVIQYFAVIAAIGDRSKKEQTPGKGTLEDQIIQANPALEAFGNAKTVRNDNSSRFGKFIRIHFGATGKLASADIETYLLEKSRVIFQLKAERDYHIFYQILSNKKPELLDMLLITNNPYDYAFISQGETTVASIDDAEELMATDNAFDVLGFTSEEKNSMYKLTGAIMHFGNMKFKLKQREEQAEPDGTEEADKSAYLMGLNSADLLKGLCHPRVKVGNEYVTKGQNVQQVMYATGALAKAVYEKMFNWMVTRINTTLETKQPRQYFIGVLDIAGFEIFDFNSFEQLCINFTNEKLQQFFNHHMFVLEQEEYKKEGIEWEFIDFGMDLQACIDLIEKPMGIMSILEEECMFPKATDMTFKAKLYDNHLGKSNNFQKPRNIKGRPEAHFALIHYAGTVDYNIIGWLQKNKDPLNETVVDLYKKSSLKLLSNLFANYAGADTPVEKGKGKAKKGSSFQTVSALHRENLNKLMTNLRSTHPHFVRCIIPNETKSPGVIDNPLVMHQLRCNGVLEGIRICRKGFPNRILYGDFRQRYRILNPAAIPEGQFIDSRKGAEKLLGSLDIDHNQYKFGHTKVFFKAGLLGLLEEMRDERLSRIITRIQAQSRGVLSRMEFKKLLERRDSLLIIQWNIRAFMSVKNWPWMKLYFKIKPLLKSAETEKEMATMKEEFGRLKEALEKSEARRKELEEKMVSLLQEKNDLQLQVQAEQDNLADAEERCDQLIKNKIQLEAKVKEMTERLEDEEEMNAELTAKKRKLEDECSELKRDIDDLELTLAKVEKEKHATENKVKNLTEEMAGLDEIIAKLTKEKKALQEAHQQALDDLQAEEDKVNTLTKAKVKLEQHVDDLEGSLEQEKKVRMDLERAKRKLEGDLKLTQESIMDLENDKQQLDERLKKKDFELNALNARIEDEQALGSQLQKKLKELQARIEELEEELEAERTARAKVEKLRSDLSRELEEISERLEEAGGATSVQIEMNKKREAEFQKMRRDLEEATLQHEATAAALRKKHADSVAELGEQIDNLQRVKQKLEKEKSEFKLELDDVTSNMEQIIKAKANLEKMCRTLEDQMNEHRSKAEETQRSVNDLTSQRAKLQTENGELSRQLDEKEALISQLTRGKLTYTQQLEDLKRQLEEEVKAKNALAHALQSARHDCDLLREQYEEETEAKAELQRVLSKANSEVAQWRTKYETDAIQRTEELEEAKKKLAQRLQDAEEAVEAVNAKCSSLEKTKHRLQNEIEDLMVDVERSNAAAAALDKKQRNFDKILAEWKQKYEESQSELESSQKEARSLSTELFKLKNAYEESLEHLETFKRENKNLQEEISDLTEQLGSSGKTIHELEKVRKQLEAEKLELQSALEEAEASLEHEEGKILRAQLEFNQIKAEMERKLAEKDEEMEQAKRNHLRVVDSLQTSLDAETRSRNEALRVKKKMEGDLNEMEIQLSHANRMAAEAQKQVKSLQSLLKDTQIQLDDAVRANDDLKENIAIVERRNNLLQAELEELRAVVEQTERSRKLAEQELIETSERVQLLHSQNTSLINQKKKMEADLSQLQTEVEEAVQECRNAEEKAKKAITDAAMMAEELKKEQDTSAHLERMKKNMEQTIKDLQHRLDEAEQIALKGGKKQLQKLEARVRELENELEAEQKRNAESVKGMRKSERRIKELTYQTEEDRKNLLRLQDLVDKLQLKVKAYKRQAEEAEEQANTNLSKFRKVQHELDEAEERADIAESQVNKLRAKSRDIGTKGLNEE
# ASSAY COMMENT: Myofibril ATPase assay (PK/LDH NADH-coupled), ventricle myofibrils
# Format: biochemical
# CONDITION NOTES: Table 7

COMPOUND: C[C@@H](NC(=O)CN1C(=O)Nc2ccc(C#N)nc2C12CC2)c1ncc(C#N)cc1F
UNIT DESCRIPTOR: µM
Porcine Ventricle IC25: 100
--
COMPOUND: C[C@H](NC(=O)CN1Cc2nc(F)ccc2NC1=O)c1ccc(F)cc1F
UNIT DESCRIPTOR: µM
Porcine Ventricle IC25: 0.8592
--
COMPOUND: O=C(CN1Cc2c(ccnc2Cl)NC1=O)N[C@@H](c1ccc(F)cc1F)C(F)(F)F
UNIT DESCRIPTOR: µM
Porcine Ventricle IC25: 100
--
COMPOUND: N#Cc1cc(F)c2c(c1)OC[C@@H]2NC(=O)CN1Cc2c(ccnc2C(F)(F)F)NC1=O
UNIT DESCRIPTOR: µM
Porcine Ventricle IC25: 38.22
--
COMPOUND: CC(NC(=O)CN1Cc2c(ccnc2C2CC2(F)F)NC1=O)c1ncc(F)cc1F (centres unmarked)
UNIT DESCRIPTOR: µM
Porcine Ventricle IC25: 100
--
COMPOUND: Cc1c(F)cnc2c1CN(CC(=O)N[C@H](C)c1ncc(F)cc1F)C(=O)N2
UNIT DESCRIPTOR: µM
Porcine Ventricle IC25: 100
--
COMPOUND: C[C@H](NC(=O)CN1Cc2c(ccnc2C(F)(F)F)NC1=O)c1ccc(C#N)cc1F
UNIT DESCRIPTOR: µM
Porcine Ventricle IC25: 1.559
--
COMPOUND: C[C@H](NC(=O)CN1C(=O)Nc2cccnc2C12CC2)c1ccc(C#N)cn1
UNIT DESCRIPTOR: µM
Porcine Ventricle IC25: 100
--
COMPOUND: C[C@H](NC(=O)CN1Cc2c(ccnc2C#N)NC1=O)c1ncc(F)cc1F
UNIT DESCRIPTOR: µM
Porcine Ventricle IC25: 5.161
--
COMPOUND: C[C@H](NC(=O)CN1Cc2c(ccnc2C(F)(F)F)NC1=O)c1ccc(F)cc1F
UNIT DESCRIPTOR: µM
Porcine Ventricle IC25: 4.027
--
COMPOUND: C[C@H](NC(=O)CN1C(=O)Nc2cccnc2C12CC2)c1ncc(C#N)cc1F
UNIT DESCRIPTOR: µM
Porcine Ventricle IC25: 1.309
--
COMPOUND: C[C@@H](NC(=O)CN1C(=O)Nc2cccnc2C12CC2)c1ncc(F)cc1F
UNIT DESCRIPTOR: µM
Porcine Ventricle IC25: 6.077
--
COMPOUND: O=C(CN1C(=O)Nc2cccnc2C12CC2)N[C@@H](CO)c1ccc(F)cc1F [Compound N28]
UNIT DESCRIPTOR: µM
Porcine Ventricle IC25: 6.602
--
COMPOUND: Cc1nccc2c1CN(CC(=O)N[C@@H](C)c1ccc(F)cc1F)C(=O)N2
UNIT DESCRIPTOR: µM
Porcine Ventricle IC25: 4.847
--
COMPOUND: C[C@H](NC(=O)CN1Cc2cc(Cl)cnc2NC1=O)c1ncc(F)cc1F
UNIT DESCRIPTOR: µM
Porcine Ventricle IC25: 100
--
COMPOUND: C[C@H](NC(=O)CN1C(=O)Nc2cccnc2C12COC2)c1ccc(F)cc1F
UNIT DESCRIPTOR: µM
Porcine Ventricle IC25: 100
--
COMPOUND: C[C@H](NC(=O)CN1C(=O)Nc2ccc(C#N)nc2C12CC2)c1ncc(C#N)cc1F
UNIT DESCRIPTOR: µM
Porcine Ventricle IC25: 0.474
